Hi there, I'd appreciate the recorded % Inhibition n=1 48h for every entry that follows.
- Test system: G. duodenalis BRIS/91/HEPU/1279
- EXPERIMENT: Primary Giardia screen at 10 µM (live-cell imaging, automated counting)
- Type: cell-based, Giardia duodenalis
- ASSAY CONTEXT: 48 h, first singlicate assay
Report the value in % with no unit label.

For G. duodenalis BRIS/91/HEPU/1279, give the measured % Inhibition n=1 48h of the entry COc1ccc(C2(C(=O)N3CCC(Cc4nc(-c5ccc(F)cc5)no4)CC3)CC2)cc1 [SN00801690]
0.0

Would you please give the reported % Inhibition n=1 48h of O=C(CN1CCC(c2nc(-c3ccc(F)cc3)no2)CC1)NCc1ccccc1 [SN00799393] with G. duodenalis BRIS/91/HEPU/1279?
0.0

Provide measured % Inhibition n=1 48h on G. duodenalis BRIS/91/HEPU/1279 for Cc1nc(-c2ccc3c(c2)n(CC(=O)NC2CCN(Cc4ccccc4)CC2)c(=O)n3C(C)C)no1 [SN00798376] please.
5.7

Please tell me the measured % Inhibition n=1 48h for CCCNC(=O)Cn1cccc1-c1nc(-c2ccc(Cl)cc2)cs1 [SN00797520] ; system: G. duodenalis BRIS/91/HEPU/1279.
24.8
